B1: TPR 5TU (parent)
chain: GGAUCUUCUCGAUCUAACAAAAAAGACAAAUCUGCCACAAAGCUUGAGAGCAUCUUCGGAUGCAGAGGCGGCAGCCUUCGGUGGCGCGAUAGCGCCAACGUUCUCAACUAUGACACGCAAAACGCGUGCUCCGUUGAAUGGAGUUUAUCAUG

- Variants of: B1
- assay overview: polymerase ribozyme fitness, log enrichment relative to wild type (log ratio); higher = more active; in vitro selection for triplet polymerase activity
Fewer inactive variants are shown than the library holds.
Form field: polymerase ribozyme fitness (log ratio) (one value per entry).
Lab note: write the figure by itself, no unit.

Some variants with recorded polymerase ribozyme fitness (log ratio):
A73U C93A ... -3.39
A17G A49U G83U ... -3.31
C38U A60C C85U C118U G136A ... -0.726
U6G A28U ... -3.76
A12C G58C C96G ... -1.07
G46C U144C ... -1.66
A91G G140U ... -4.19
G62A C87U A120G A142C ... -3.11
C14A U53A C96A A98C A120U G141A ... -3.99
A39C U53C U135C ... -3.94

What does the data say about its polymerase ribozyme fitness (log ratio)? Entry: G68U C85U U144A
-4.15

And G92U C96U A97U A115U A121U ?
-2.82

And G50A C103U ?
-1.49
